- Subject of test: T1, recombinant human 4R0N tau (human, UniProt P10636 2-758)
- T1 construct: also called recombinant 4R0N human tau; P10636-6
- Assay explanation: SPR Biacore T200; antibody captured by anti-human Fc; tau as analyte; global 1:1 fit
log10 kon listing for selected binders.
Record value = log10 of kon given in M⁻¹ s⁻¹.

[[record]]
binder = "hu9F5VHv10/hu9F5VLv9_DIM10 (antibody, V domains shown) VH: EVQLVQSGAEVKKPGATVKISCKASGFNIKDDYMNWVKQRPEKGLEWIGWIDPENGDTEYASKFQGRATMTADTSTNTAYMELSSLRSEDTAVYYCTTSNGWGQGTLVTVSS VL: DIQMTQSPFSLPVTPGESASISCRSSKSLSHSNGITYLYWYQQKPGQSPQLLIYQKSNGASGVPDRFSSSGSGTDFTLKISRVEAEDVGVYYCAQNIELPLTFGQGTKLEIK"
outcome_measure = "log10 kon"
recorded_value = 6.84

[[record]]
binder = "hu9F5VHv9/hu9F5VLv8_DIM28 (antibody, V domains shown) VH: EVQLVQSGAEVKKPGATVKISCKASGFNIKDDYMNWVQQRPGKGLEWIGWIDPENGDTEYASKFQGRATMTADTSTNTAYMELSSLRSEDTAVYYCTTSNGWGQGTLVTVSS VL: DIQMTQSPFSLPVTPGESASISCRSSKSLSHSNGITYLYWYLQKPGQSPQLLIYQGSNRASGVPNRFSSSGSGTDFTLKISRVEAEDVGVYYCAQNIELPLTFGQGTKLEIK"
outcome_measure = "log10 kon"
recorded_value = 6.50

[[record]]
binder = "hu9F5VHv9/hu9F5VLv8_DIM22 (antibody, V domains shown) VH: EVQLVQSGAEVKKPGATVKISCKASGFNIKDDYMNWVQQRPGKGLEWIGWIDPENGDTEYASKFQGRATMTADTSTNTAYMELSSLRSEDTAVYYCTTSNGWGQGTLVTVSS VL: DIQMTQSPFSLPVTPGESASISCRSSKSLSHSNGITYLYWYQQKPGQSPQLLIYQESNRASGVPNRFSSSGSGTDFTLKISRVEAEDVGVYYCAQNIELPLTFGQGTKLEIK"
outcome_measure = "log10 kon"
recorded_value = 6.35

[[record]]
binder = "hu9F5VHv9/hu9F5VLv8_DIM24 (antibody, V domains shown) VH: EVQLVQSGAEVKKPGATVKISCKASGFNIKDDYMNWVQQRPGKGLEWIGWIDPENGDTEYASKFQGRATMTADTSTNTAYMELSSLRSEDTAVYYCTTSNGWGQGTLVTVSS VL: DIQMTQSPFSLPVTPGESASISCRSSKSLGHSNGITYLYWYIQKPGQSPQLLIYQESNRASGVPNRFSSSGSGTDFTLKISRVEAEDVGVYYCAQNIELPLTFGQGTKLEIK"
outcome_measure = "log10 kon"
recorded_value = 6.34


-- ask Which log10 kon is listed for hu9F5VHv9/hu9F5VLv8_DIM30 (antibody, V domains shown) VH: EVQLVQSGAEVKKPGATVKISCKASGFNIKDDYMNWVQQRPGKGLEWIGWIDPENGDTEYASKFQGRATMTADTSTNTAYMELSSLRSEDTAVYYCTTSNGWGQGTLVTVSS VL: DIQMTQSPFSLPVTPGESASISCRSSKSLSHSNGITYLYWYQQKPGQSPQLLIYQGSNLASGVPNRFSSSGSGTDFTLKISRVEAEDVGVYYCAQNIELPLTFGQGTKLEIK ?
-- reply 6.01

-- ask Entry hu9F5VHv9/hu9F5VLv8_DIM1 (antibody, V domains shown) VH: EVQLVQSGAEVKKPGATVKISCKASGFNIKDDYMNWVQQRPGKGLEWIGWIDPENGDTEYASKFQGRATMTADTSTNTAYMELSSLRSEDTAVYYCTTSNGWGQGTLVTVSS VL: DIQMTQSPFSLPVTPGESASISCRSSKSLSHSNGITYLYWYQQKPGQSPQLLIYQGSNGASGVPNRFSSSGSGTDFTLKISRVEAEDVGVYYCAQNIELPLTFGQGTKLEIK has what log10 kon?
-- reply 6.82

-- ask What value of log10 kon has been reported for the following binder? hu9F5VHv10/hu9F5VLv9_DIM1 (antibody, V domains shown) VH: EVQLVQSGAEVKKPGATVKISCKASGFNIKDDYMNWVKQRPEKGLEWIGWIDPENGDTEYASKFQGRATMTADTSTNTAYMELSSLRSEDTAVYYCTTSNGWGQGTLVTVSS VL: DIQMTQSPFSLPVTPGESASISCRSSKSLSHSNGITYLYWYQQKPGQSPQLLIYQGSNGASGVPDRFSSSGSGTDFTLKISRVEAEDVGVYYCAQNIELPLTFGQGTKLEIK
-- reply 6.43

-- ask Requested field: log10 kon. Item: hu9F5VHv10/hu9F5VLv9_DIM2 (antibody, V domains shown) VH: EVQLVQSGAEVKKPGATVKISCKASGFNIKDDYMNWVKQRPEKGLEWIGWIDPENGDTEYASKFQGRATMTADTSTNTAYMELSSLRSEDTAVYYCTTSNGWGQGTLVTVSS VL: DIQMTQSPFSLPVTPGESASISCRSSKSLSHSNGITYLYWYQQKPGQSPQLLIYQGSNRASGVPDRFSSSGSGTDFTLKISRVEAEDVGVYYCAQNIELPLTFGQGTKLEIK
-- reply 6.43

-- ask Name the recorded log10 kon for hu9F5VHv9/hu9F5VLv8_DIM23 (antibody, V domains shown) VH: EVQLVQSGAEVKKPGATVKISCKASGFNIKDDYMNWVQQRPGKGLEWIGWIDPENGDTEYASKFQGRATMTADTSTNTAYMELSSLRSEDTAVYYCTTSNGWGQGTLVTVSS VL: DIQMTQSPFSLPVTPGESASISCRSSKSLGHSNGITYLYWYQQKPGQSPQLLIYQESNGASGVPNRFSSSGSGTDFTLKISRVEAEDVGVYYCAQNIELPLTFGQGTKLEIK .
-- reply 7.83

-- ask Any idea what log10 kon was measured for hu9F5VHv9/hu9F5VLv8_DIM5 (antibody, V domains shown) VH: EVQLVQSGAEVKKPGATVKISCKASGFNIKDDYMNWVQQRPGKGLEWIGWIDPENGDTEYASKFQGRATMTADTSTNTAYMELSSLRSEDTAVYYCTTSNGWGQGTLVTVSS VL: DIQMTQSPFSLPVTPGESASISCRSSKSLGHSNGITYLYWYQQKPGQSPQLLIYQGSNRASGVPNRFSSSGSGTDFTLKISRVEAEDVGVYYCAQNIELPLTFGQGTKLEIK ?
-- reply 6.24
